- measurement target: α4β1 integrin (Homo sapiens (Human), UniProt P05556+P13612)
- Sequence (P13612 34-1032): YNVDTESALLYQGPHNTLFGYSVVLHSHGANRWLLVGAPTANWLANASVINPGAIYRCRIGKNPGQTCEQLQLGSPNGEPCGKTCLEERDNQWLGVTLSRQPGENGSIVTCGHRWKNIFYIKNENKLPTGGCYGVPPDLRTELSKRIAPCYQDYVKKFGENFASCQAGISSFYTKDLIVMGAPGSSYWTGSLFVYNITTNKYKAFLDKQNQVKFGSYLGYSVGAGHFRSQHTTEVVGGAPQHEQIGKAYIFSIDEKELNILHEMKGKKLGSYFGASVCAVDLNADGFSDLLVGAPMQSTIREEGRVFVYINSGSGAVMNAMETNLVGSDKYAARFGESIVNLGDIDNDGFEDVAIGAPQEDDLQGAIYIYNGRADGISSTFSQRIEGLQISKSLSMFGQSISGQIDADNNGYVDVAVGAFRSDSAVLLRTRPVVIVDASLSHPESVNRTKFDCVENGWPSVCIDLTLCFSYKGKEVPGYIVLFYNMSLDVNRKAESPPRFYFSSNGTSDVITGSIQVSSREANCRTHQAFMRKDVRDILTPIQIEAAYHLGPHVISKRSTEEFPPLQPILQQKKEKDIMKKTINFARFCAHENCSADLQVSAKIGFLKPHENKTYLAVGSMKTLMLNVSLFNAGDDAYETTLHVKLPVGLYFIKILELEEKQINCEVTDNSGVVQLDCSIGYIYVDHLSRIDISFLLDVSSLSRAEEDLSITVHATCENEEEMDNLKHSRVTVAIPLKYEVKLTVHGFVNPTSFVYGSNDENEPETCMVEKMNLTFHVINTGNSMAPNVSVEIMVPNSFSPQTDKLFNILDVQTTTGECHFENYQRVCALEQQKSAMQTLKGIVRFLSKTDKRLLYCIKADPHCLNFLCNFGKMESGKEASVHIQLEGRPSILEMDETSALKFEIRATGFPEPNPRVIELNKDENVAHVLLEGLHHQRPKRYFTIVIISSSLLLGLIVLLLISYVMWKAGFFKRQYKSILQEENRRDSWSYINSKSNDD
- Sequence (P05556 21-798): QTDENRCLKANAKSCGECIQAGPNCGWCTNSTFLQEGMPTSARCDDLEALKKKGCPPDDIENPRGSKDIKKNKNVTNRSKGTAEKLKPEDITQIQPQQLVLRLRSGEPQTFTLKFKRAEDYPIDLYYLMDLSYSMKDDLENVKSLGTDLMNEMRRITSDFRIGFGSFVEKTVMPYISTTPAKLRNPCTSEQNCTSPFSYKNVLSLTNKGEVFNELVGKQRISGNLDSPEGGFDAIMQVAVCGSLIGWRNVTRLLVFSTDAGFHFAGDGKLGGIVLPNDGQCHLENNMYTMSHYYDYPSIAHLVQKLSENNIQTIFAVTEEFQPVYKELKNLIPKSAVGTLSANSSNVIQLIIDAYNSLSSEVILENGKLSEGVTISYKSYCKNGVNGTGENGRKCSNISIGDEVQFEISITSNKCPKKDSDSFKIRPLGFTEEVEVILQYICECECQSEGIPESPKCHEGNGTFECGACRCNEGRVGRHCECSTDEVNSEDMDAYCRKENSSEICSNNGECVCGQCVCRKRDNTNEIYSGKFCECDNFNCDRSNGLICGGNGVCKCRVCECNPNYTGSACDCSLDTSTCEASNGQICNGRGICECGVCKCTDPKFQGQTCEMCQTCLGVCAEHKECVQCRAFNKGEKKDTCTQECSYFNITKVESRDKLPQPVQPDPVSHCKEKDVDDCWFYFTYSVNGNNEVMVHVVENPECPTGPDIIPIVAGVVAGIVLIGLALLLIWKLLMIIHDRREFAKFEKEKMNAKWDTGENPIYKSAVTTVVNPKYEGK
- protocol: Integrin Adhesion Assay: Protocol 5 (VCAM-coated plate, RPMI-8866 cells with stable LOF mutation of the ITGB7 gene)
- Assay type: cell-based
- condition context: Protocol 5; RPMI-8866 cells with LOF mutation of ITGB7, VCAM; read-out: Mean IC50 α4β1 KO
pIC50: −log10 of the molar value.
Consider the following molecules; for each one, report its pIC50.

The cases that follow already have their pIC50 on record.
CN(Cc1cnc(-c2cccc3c(C[C@H](NC(=O)C4(C(F)(F)F)CCN(CC(F)(F)F)CC4)C(=O)O)cccc23)c2ccccc12)CC(F)F; < 6.00
O=C(O)[C@H](Cc1cccc2c(-c3ncc(CN4CC5CC(C4)O5)c4ccccc34)cccc12)NC(=O)C1(C(F)(F)F)CCN(CC(F)(F)F)CC1; < 6.00
COc1cc2c(c(C)c1-c1cccc3c(C[C@H](NC(=O)C4(C(F)(F)F)CCN(CC(F)(F)F)CC4)C(=O)O)cccc13)CN(C)CC2; 7.00 to 8.00
CN(C)Cc1cnc(-c2cccc3c(C[C@H](NC(=O)C4(C(F)(F)F)CCN(CC(F)(F)F)CC4)C(=O)O)cccc23)c2ccccc12; 6.00 to 7.00
COc1ccc(CN2CCCC(F)C2)c(OC)c1-c1cccc2c(C[C@H](NC(=O)C3(C(F)(F)F)CCN(CC(F)(F)F)CC3)C(=O)O)cccc12 (some centres unmarked); < 6.00
Cn1c(=O)c(-c2cccc3c(C[C@H](NC(=O)c4c(F)cccc4F)C(=O)O)cccc23)c(C(F)(F)F)c2cc(CCN3CC(F)C3)ccc21; < 6.00
COc1ccc(CCN2CCC(F)CC2)c(OC)c1-c1cccc2c(C[C@H](NC(=O)C3(C(F)(F)F)CCN(CC(F)(F)F)CC3)C(=O)O)cccc12; 6.00 to 7.00
Cc1c(CCN2CCCCC2)ccnc1-c1cccc2c(C[C@H](NC(=O)C3(C(F)(F)F)CCN(CC(F)(F)F)CC3)C(=O)O)cccc12; 6.00 to 7.00
COc1ccc(CN2CCC(F)(F)CC2)c(OC)c1-c1cccc2c(C[C@H](NC(=O)C3(C(F)(F)F)CCN(CC(F)(F)F)CC3)C(=O)O)cccc12; < 6.00
Cn1c(=O)c(-c2cccc3c(C[C@H](NC(=O)c4c(F)cccc4F)C(=O)O)cccc23)c(C(F)(F)F)c2cc(CCN3CCC3)ccc21; < 6.00

Batch request: pIC50 for each of the following molecules.
1. O=C(O)[C@H](Cc1cccc2c(-c3c(CN4CCCCC4)ccc4cccnc34)cccc12)NC(=O)C1(C(F)(F)F)CCN(CC(F)(F)F)CC1
2. COc1cccc(CCN2CCC[C@H](F)C2)c1-c1cccc2c(C[C@H](NC(=O)c3c(C)cccc3F)C(=O)O)cccc12

1: < 6.00; 2: < 6.00

Hi, could you look up pIC50 for each item in my list?
1. O=C(O)[C@H](Cc1cccc2c(-c3ncc(CN4CCN(C5CC5)CC4)cc3C3CC3)cccc12)NC(=O)C1(C(F)(F)F)CCN(CC(F)F)CC1
2. CCOCc1cc(OC)c(-c2cccc3c(C[C@H](NC(=O)C4(C(F)(F)F)CCN(CC(F)(F)F)CC4)C(=O)O)cccc23)cc1CN1CCCCC1
3. COc1ccc2c(c1-c1cccc3c(C[C@H](NC(=O)c4c(C)cccc4F)C(=O)O)cccc13)CCN(CC(F)(F)F)C2
4. Cn1c(=O)c(-c2cccc3c(C[C@H](NC(=O)c4c(F)cccc4F)C(=O)O)cccc23)c(C(F)(F)F)c2cc(C3CCCO3)ccc21 (some centres unmarked)

1. 6.00 to 7.00
2. 6.00 to 7.00
3. < 6.00
4. < 6.00

Would you be so kind as to report pIC50 for each listed record?
1. C[C@@H]1CN(Cc2cnc(-c3cccc4c(C[C@H](NC(=O)C5(C(F)(F)F)CCN(CC(F)(F)F)CC5)C(=O)O)cccc34)c3ccccc23)C[C@H](C)N1
2. O=C(O)[C@H](Cc1cccc2c(-c3ncc(CN4CCCCC4)cc3Cl)cccc12)NC(=O)C1(C(F)(F)F)CCN(CC(F)(F)F)CC1
3. COc1c(CN2CCCCC2)ccnc1-c1cccc2c(C[C@H](NC(=O)c3c(C)cccc3F)C(=O)O)cccc12
4. COc1ccc(CN2CCC(C(C)(C)C)CC2)c(OC)c1-c1cccc2c(C[C@H](NC(=O)C3(C(F)(F)F)CCN(CC(F)(F)F)CC3)C(=O)O)cccc12
5. COc1cnc(CN2CCC3(CCCCC3)CC2)c(OC)c1-c1cccc2c(C[C@H](NC(=O)c3c(C)cccc3F)C(=O)O)cccc12
6. COc1ccc(CN2CCN(C3CCC3)CC2)c(OC)c1-c1cccc2c(C[C@H](NC(=O)C3(C(F)(F)F)CCN(CC(F)(F)F)CC3)C(=O)O)cccc12
7. COc1ccc(CN2CCC(C(F)(F)F)CC2)cc1-c1cccc2c(C[C@H](NC(=O)C3(C(F)(F)F)CCN(CC(F)F)CC3)C(=O)O)cccc12

1. 6.00 to 7.00
2. < 6.00
3. < 6.00
4. < 6.00
5. < 6.00
6. 6.00 to 7.00
7. 6.00 to 7.00
